Provenance of the data: ChEMBL document CHEMBL5705893

IC50 overview
Experiment: Inhibition of recombinant ABL (unknown origin)
Design: species or system Homo sapiens

smiles_input=O=C1c2ccccc2-c2n[nH]c3cccc1c23 result="> 10 µM"

Now consider the entry below.
Name the reported IC50 value associated with the molecule CCc1cccc(CC)c1NC(=O)c1nn(C)c2c1CCc1cnc(Nc3ccc(C(=O)NC4CCN(C)CC4)cc3OC(F)(F)F)nc1-2 > 10 µM

###

Target: RAC-alpha serine/threonine-protein kinase (Homo sapiens, UniProt P31749)
Sequence (P31749 whole entry): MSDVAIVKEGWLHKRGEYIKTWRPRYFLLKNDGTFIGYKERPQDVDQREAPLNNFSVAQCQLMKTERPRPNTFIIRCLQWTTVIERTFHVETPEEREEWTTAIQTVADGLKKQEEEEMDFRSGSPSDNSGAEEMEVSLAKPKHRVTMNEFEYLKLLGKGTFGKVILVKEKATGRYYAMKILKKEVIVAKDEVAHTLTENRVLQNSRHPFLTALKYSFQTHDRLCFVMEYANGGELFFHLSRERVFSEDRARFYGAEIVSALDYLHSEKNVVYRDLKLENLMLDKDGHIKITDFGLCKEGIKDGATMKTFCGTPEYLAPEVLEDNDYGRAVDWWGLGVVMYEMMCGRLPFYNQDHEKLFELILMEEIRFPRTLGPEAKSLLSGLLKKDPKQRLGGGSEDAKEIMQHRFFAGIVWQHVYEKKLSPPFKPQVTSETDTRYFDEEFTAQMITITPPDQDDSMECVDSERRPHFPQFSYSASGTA
Experiment: Inhibition of recombinant AKT1 (unknown origin)
IC50 overview

smiles_input=CCc1cccc(CC)c1NC(=O)c1nn(C)c2c1CCc1cnc(Nc3ccc(C(=O)NC4CCN(C)CC4)cc3OC(F)(F)F)nc1-2 test_target="RAC-alpha serine/threonine-protein kinase (Homo sapiens, UniProt P31749)" result="> 10 µM"

Name the reported IC50 value associated with the compound O=C1c2ccccc2-c2n[nH]c3cccc1c23 > 10 µM
